# Plant response rating, Velvetleaf per entry
- Tested on: velvetleaf (Abutilon theophrasti)
- assay text: Test C pre-/postemergence: velvetleaf
- Type: in vivo
- measurement parameters: Preemergence, 31 g ai/ha; scale of 0 to 100, 0 is no effect, 100 is complete control
Output spec: single numeric token, no unit.

molecule="Cc1nn(-c2ccc(C(F)(F)F)c(F)c2)nc1Oc1ccnc(C(F)(F)F)c1 [Compound 148]" tgt="velvetleaf (Abutilon theophrasti)" value_measured=15
molecule="COc1nn(-c2ccc(C(F)(F)F)cc2)nc1Cc1ccnc(C(F)(F)F)c1 [Compound 15]" tgt="velvetleaf (Abutilon theophrasti)" value_measured=0
molecule="FC(F)(F)COc1nn(-c2ccc(C(F)(F)F)cc2)nc1Cc1ccnc(C(F)(F)F)c1 [Compound 14]" tgt="velvetleaf (Abutilon theophrasti)" value_measured=10

Continue with the molecule presented below.
In: Checklist item: Plant response rating, Velvetleaf tested on velvetleaf (Abutilon theophrasti), entry FCc1nn(-c2ccc(F)cc2)nc1Oc1ccnc(C(F)(F)F)c1 [Compound 160] , value?
Out: 5

###

- Tested on: blackgrass (Alopecurus myosuroides)
- assay text: Test C pre-/postemergence: blackgrass
- Assay type: in vivo
- measurement parameters: Postemergence, 125 g ai/ha; scale 0 to 100, 0 no effect, 100 complete control
measured endpoint: Plant response rating, Blackgrass

Below: 5 compounds and their reported Plant response rating, Blackgrass.
query_smiles=Cc1nn(-c2ccc(C(F)(F)F)cn2)nc1Oc1ccnc(C(F)(F)F)c1 value_measured=20
query_smiles=CCc1nn(-c2ccc(F)c(F)c2)nc1Oc1ccnc(C(F)(F)F)c1 value_measured=10
query_smiles=COc1nn(-c2cccc(F)c2)nc1Cc1ccnc(C(F)(F)F)c1 value_measured=70
query_smiles=CCc1nn(-c2ccc(C(F)(F)F)c(F)c2)nc1Oc1ccnc(C(F)(F)F)c1 value_measured=60
query_smiles=CCCc1nn(-c2ccc(F)c(F)c2)nc1Oc1ccnc(C(F)(F)F)c1 value_measured=60

In: Recorded Plant response rating, Blackgrass of CCOc1nn(-c2ccc(F)cc2)nc1Cc1ccnc(C(F)(F)F)c1 , please.
Out: 80

In: Cc1nn(-c2ccc(C(F)(F)F)cn2)nc1Cc1cccc(C(F)(F)F)c1 ?
Out: 45

In: Cc1nn(-c2ccc(F)c(C(F)(F)F)c2)nc1Cc1ccnc(C(F)(F)F)c1 ?
Out: 75

###

# Foxtail, Giant plant response rating per entry
- Tested on: foxtail, giant (giant foxtail, Setaria faberii)
- assay text: Test A pre-/postemergence: foxtail, giant
- Format: in vivo
- measurement parameters: Postemergence, 500 g ai/ha; 0 to 100 scale, 0 is no effect, 100 is complete control
Output spec: single numeric token, no unit.

query_smiles=CC(=O)Oc1nn(-c2ccc(C(F)(F)F)cc2)nc1Cc1ccnc(C(F)(F)F)c1 tgt="foxtail, giant (giant foxtail, Setaria faberii)" value_measured=40
query_smiles=FC(F)(F)c1cccc(-n2nc(Oc3ccnc(C(F)(F)F)c3)c(C3CC3)n2)c1 tgt="foxtail, giant (giant foxtail, Setaria faberii)" value_measured=20
query_smiles=CCCOc1nn(-c2ccc(C(F)(F)F)cc2)nc1Cc1ccnc(C(F)(F)F)c1 tgt="foxtail, giant (giant foxtail, Setaria faberii)" value_measured=100

In: Recorded Foxtail, Giant plant response rating of CCc1nn(-c2ccc(C(F)(F)F)c(F)c2)nc1Oc1ccnc(C(F)(F)F)c1 , please.
Out: 90
